target-desc: protein farnesyltransferase (Rattus norvegicus, UniProt Q02293+Q04631)
Construct: The enzyme is purified according to Reiss, Y., et al., Cell, 62: 81-88 (1990), utilizing steps one through three; from tissue; host or cells: rat brain
test-method-notes: Inhibition of farnesyltransferase (scintillation proximity assay, rat brain enzyme, biotin-K Ras B fragment substrate)
Assay type: biochemical
condition-details: read-out: % inhibition at 0.1 μM (*); Table 6, * = 0.1 μM (footnote); title prints 0.1 mM
Structures can show the parent of a compound that is named as a salt.
endpoint-name: inhibition at 0.1 µM (%)
Give the number; % is assumed, so skip it.

Solved cases below.
CCSCC(CCC1CCCCC1)Cc1ccc(C(=O)N[C@@H](CCSC)C(=O)O)c(-c2ccccc2C)c1 (stereo partly shown) [Example 1300, Lithium Salt] : 97
CSCC[C@H](NC(=O)c1ccc(Cc2nnn(Cc3ccccc3)n2)cc1-c1ccccc1C)C(=O)O [Example 1101] : 86
CSCC[C@H](NC(=O)c1ccc(CN2CCC[C@H]2CN(C)C2CCCCC2)cc1-c1ccccc1C)C(=O)O [Example 1127] : 90
COC1CC(COCc2ccccc2)N(Cc2ccc(C(=O)N[C@@H](CCSC)C(=O)O)c(-c3ccccc3C)c2)C1 (stereo partly shown) [Example 1121] : 72
CCCCN(Cc1cc(F)cc(F)c1)OCc1ccc(C(=O)N[C@@H](CCSC)C(=O)O)c(-c2ccccc2C)c1 [Example 1176, lithium salt] : 97

Could you tell me which inhibition at 0.1 µM is on file for CSCC[C@H](NC(=O)c1ccc(/C=C/c2ccc(Oc3ccc(Cl)cc3)cc2)cc1-c1ccccc1C)C(=O)O [Example 1016, lithium salt] ? 92

So what's the measured inhibition at 0.1 µM for this one? CCCCP(=O)(CCCC)Cc1ccc(C(=O)N[C@@H](CCSC)C(=O)O)c(-c2ccccc2C)c1 [Example 1222] 89
